# Target under test: T1, GPR39 (G protein coupled receptor 39) (UniProt O43194 1-453, limits assumed)
# T1 sequence (looked up): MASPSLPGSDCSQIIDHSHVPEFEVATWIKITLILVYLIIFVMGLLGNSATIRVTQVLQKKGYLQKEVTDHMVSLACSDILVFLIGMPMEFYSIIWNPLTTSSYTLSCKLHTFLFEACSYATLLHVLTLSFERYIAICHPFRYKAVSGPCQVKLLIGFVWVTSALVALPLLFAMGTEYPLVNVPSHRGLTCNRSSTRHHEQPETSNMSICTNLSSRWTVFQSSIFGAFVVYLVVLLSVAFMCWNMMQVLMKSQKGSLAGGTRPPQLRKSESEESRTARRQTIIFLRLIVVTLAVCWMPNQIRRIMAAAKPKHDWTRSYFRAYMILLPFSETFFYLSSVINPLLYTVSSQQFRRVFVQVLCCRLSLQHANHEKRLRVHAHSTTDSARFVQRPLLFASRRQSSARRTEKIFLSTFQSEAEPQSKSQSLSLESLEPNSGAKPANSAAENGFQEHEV
# Protocol text: cell-based or functional assay
Square brackets hold non-standard residues; d marks the D form. Ends that are not written are not given here. * marks the point of attachment. Biotin = O=C1N[C@H]2[C@H](CS[C@H]2CCCCC(=O)*)N1; 4‑chlorobenzhydryl = Clc1ccc(C(c2ccccc2)*)cc1; Bip = N[C@@H](Cc1ccc(-c2ccccc2)cc1)C(=O)O; dPhe(4-Br) = N[C@H](Cc1ccc(Br)cc1)C(=O)O; dPhe(4-Cl) = N[C@H](Cc1ccc(Cl)cc1)C(=O)O; dPhe(4-Me) = Cc1ccc(C[C@@H](N)C(=O)O)cc1; Trt = c1ccc(C(c2ccccc2)(c2ccccc2)*)cc1; Dmt = Cc1cc(O)cc(C)c1C[C@H](N)C(=O)O; Benzhydryl = c1ccc(C(c2ccccc2)*)cc1; Decanoyl = CCCCCCCCCC(=O)*; Octanoyl = CCCCCCCC(=O)*
ECmax; SRE-luciferase reporter listing for selected binders.

Worked examples, 6 binders total:
> print(dat)
                                     binder                measurement.type                              val
1  H(Trt)K(Octanoyl)[dPhe(4-Cl)]Y [HKFY-13]  ECmax; SRE-luciferase reporter  25.7 -fold induction over basal
2          H(Trt)K(Decanoyl)FY-OH [HKFY-24]  ECmax; SRE-luciferase reporter  7.03 -fold induction over basal
3  H(Trt)FYDQQARF (also: C-terminal Phe amide in IUPAC name, not in sequence formula) [HKFY-52]  ECmax; SRE-luciferase reporter  15.5 -fold induction over basal
4        H(Trt)GSK(Octanoyl)FY-OH [HKFY-53]  ECmax; SRE-luciferase reporter     8 -fold induction over basal
5  H(Trt)K(Octanoyl)[dPhe(4-Me)]Y [HKFY-30]  ECmax; SRE-luciferase reporter  23.9 -fold induction over basal
6  H(4‑chlorobenzhydryl)K(Octanoyl)FY [HKFY-21]  ECmax; SRE-luciferase reporter  18.3 -fold induction over basal

Give a short answer stating reported ECmax; SRE-luciferase reporter for Biotin-H(Trt)K(Octanoyl)[Bip]Y [HKFY-45] .
21 -fold induction over basal

Give a short answer stating reported ECmax; SRE-luciferase reporter for H(Trt)K(Octanoyl)[dPhe(4-Br)]Y-OH [HKFY-29] .
26.8 -fold induction over basal

Give a short answer stating reported ECmax; SRE-luciferase reporter for H(Benzhydryl)K(Octanoyl)[dPhe(4-Me)]Y [HKFY-34] .
22.4 -fold induction over basal

Give a short answer stating reported ECmax; SRE-luciferase reporter for HK(Octanoyl)FY (not fully specified (residue 1)) [HKFY-17] .
20 -fold induction over basal

Give a short answer stating reported ECmax; SRE-luciferase reporter for H(Trt)K(Octanoyl)FS [HKFY-50] .
16.2 -fold induction over basal

Give a short answer stating reported ECmax; SRE-luciferase reporter for H(Benzhydryl)K(Octanoyl)[dPhe(4-Me)][Dmt] [HKFY-36] .
9.9 -fold induction over basal

Give a short answer stating reported ECmax; SRE-luciferase reporter for H(4‑methylbenzhydryl)K(Octanoyl)FY [HKFY-22] .
21.3 -fold induction over basal

Ref: patent US20250340591A1
